- Measured target: TRPML1 (Homo sapiens, UniProt Q9GZU1)
- Sequence (Q9GZU1 whole entry L15A/L16A/L577A/L578A, form open): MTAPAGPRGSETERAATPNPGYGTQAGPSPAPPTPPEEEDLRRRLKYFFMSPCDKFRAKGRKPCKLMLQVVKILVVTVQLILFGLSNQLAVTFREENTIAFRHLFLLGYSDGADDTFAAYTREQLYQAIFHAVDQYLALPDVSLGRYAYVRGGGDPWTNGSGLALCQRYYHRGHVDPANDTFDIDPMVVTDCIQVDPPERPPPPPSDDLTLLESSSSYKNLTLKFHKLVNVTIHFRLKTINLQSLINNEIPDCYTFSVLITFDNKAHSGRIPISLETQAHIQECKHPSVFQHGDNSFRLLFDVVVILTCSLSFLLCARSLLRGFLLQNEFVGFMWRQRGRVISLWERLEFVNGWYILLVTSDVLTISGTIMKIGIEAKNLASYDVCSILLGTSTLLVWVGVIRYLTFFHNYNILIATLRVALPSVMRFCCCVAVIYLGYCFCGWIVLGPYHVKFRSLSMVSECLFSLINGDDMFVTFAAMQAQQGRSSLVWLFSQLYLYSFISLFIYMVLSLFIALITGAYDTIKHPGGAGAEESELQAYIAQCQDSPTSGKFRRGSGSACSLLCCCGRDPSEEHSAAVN
- Test protocol: Fluorescent TRPML1 assay (Fluo4-AM calcium fluorescence in doxycycline-induced HEK-293 Trex cells)
- Type: cell-based
Observation type: EC50

Which EC50 is reported for this compound? [2H]C([2H])([2H])C(OC(=O)N1C[C@@H](C)N(c2ncnc3c2c(C(F)(F)F)cn3-c2cc(C#N)ccn2)C[C@H]1C)(C([2H])([2H])[2H])C([2H])([2H])[2H]
< 100 nM

Likewise for C[C@H]1CN(C(=O)OC(C)(C)C)CCN1c1ncnc2c1c(N1CCC1)cn2-c1cc(F)cc(F)c1 ?
< 100 nM

Likewise for C[C@H]1CN(C(=O)OC(C)(C)C)CCN1c1nccc2c1c(C1(C)CC1)cn2-c1cc(C#N)ccn1 ?
< 100 nM

Likewise for C[C@@H]1CN(c2ncnc3c2c(C(F)F)cn3-c2cc(C#N)ccn2)[C@@H](C)CN1C(=O)OC1(C(F)(F)F)CCC1 ?
< 100 nM

Likewise for [2H]C([2H])([2H])[C@@H]1CN(c2ncnc3c2c(C2CC2)cn3-c2cc(C#N)ccn2)[C@@H](C)CN1C(=O)OC(C)(C)C ?
< 100 nM

Likewise for C[C@@H]1CN(c2ncnc3c2c(C(F)(F)F)cn3-c2cc(C#N)ccn2)[C@@H](C)CN1C(=O)OC1CC1 ?
< 100 nM

Likewise for Cc1cn(-c2cncnc2)c2ncnc(N3CCN(C(=O)OC(C)(C)C)C[C@@H]3C)c12 ?
500 to 2000 nM

Likewise for C[C@@H]1CN(c2ncnc3c2c(C(F)(F)F)cn3[C@H]2CCCC(F)(F)C2)[C@@H](C)CN1C(=O)OC(C)(C)C (single isomer, unassigned) ?
500 to 2000 nM

Likewise for Cc1cn(-c2cc(F)ccn2)c2ncnc(N3CCN(C(=O)OC(C)(C)C)C[C@@H]3C)c12 ?
< 100 nM

Likewise for Cc1cn(-c2ccccc2)c2ncnc(N3CCN(C(=O)OC(C)(C)C)C[C@@H]3C)c12 ?
< 100 nM

Likewise for C[C@@H]1CN(c2ncnc3c2c(C2CCC2)cn3-c2cccc(F)c2)[C@@H](C)CN1C(=O)OC(C)(C)C ?
500 to 2000 nM

Likewise for Cc1cn(-c2cc(F)cc(F)c2)c2ncnc(N3CCN(C(=O)OC(C)(C)C)C[C@@H]3C)c12 ?
< 100 nM

Likewise for C[C@@H]1CN(c2ncnc3c2c(-c2ccccc2F)cn3-c2cncc(C#N)c2)[C@@H](C)CN1C(=O)OC(C)(C)C ?
< 100 nM

src = patent US20250136606A1
